Hey, just so you know, these numbers are from IntAct's records for PubMed 22081014.

B1: Breast cancer anti-estrogen resistance protein 1 (Homo sapiens), P56945 (parent)
chain: MNHLNVLAKALYDNVAESPDELSFRKGDIMTVLEQDTQGLDGWWLCSLHGRQGIVPGNRLKILVGMYDKKPAGPGPGPPATPAQPQPGLHAPAPPASQYTPMLPNTYQPQPDSVYLVPTPSKAQQGLYQVPGPSPQFQSPPAKQTSTFSKQTPHHPFPSPATDLYQVPPGPGGPAQDIYQVPPSAGMGHDIYQVPPSMDTRSWEGTKPPAKVVVPTRVGQGYVYEAAQPEQDEYDIPRHLLAPGPQDIYDVPPVRGLLPSQYGQEVYDTPPMAVKGPNGRDPLLEVYDVPPSVEKGLPPSNHHAVYDVPPSVSKDVPDGPLLREETYDVPPAFAKAKPFDPARTPLVLAAPPPDSPPAEDVYDVPPPAPDLYDVPPGLRRPGPGTLYDVPRERVLPPEVADGGVVDSGVYAVPPPAEREAPAEGKRLSASSTGSTRSSQSASSLEVAGPGREPLELEVAVEALARLQQGVSATVAHLLDLAGSAGATGSWRSPSEPQEPLVQDLQAAVAAVQSAVHELLEFARSAVGNAAHTSDRALHAKLSRQLQKMEDVHQTLVAHGQALDAGRGGSGATLEDLDRLVACSRAVPEDAKQLASFLHGNASLLFRRTKATAPGPEGGGTLHPNPTDKTSSIQSRPLPSPPKFTSQDSPDGQYENSEGGWMEDYDYVHLQGKEEFEKTQKELLEKGSITRQGKSQLELQQLKQFERLEQEVSRPIDHDLANWTPAQPLAPGRTGGLGPSDRQLLLFYLEQCEANLTTLTNAVDAFFTAVATNQPPKIFVAHSKFVILSAHKLVFIGDTLSRQAKAADVRSQVTHYSNLLCDLLRGIVATTKAAALQYPSPSAAQDMVERVKELGHSTQQFRRVLGQLAAA
partner: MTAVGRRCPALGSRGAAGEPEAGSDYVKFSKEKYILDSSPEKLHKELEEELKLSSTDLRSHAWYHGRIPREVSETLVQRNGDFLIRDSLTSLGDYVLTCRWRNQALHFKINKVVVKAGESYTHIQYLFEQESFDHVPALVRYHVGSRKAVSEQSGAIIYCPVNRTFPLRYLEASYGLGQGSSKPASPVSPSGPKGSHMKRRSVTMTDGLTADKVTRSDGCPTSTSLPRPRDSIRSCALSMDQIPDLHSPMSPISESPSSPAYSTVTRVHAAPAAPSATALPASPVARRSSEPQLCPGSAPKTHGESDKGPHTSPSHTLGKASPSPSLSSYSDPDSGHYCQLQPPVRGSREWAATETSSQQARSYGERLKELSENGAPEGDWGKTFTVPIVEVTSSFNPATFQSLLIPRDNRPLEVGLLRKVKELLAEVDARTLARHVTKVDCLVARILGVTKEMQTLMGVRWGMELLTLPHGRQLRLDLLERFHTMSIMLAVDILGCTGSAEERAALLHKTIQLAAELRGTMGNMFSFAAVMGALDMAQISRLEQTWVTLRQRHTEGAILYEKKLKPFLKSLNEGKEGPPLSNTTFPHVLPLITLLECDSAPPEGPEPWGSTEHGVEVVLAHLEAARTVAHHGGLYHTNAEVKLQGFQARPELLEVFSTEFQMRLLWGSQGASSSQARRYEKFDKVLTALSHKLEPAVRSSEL

Variants of: B1
conditions used: with SH2D3C
endpoint name: effect of a mutation on the interaction

Below, each entry is followed by its recorded effect of a mutation on the interaction result.
L787E | decreasing interaction
F794R | decreasing interaction
F794E;D797R | disrupting interaction
L787E;F794R | disrupting interaction

Okay, now this variant:
What value of effect of a mutation on the interaction has been reported for the following variant? D797R
decreasing interaction
